// data source = paper PMC9482650

Target: MAGI1_2, Q96QZ7
Sequence (Q96QZ7 456-580): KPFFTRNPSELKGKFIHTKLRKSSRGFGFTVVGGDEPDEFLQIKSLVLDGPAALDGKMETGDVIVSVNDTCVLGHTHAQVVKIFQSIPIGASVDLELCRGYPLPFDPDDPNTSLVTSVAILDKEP
Assay: holdup assay
Parameters: key: below the threshold = too weak to quantify, mostly under pKd 3.1 to 4
Conditions: plain residues with an end cap or a label only (N-terminal biotin on a linker: ado-ado)
Lab note: anything with pKd at or over 4 counts as True; the rest go in False.

In [3]: df
Out[3]:
                             binder  discrete_label
 0     MQHQRTHTRV [ZSCAN30, Q86W11]            True
 1     ARGPPRESEV [FAM110D, Q8TAY7]            True
 2       DTKNYKQTSV [CRIPT, Q9P021]            True
 3      NTANRRTTPV [CACNG2, Q9Y698]            True
 4       EIPAQSPTCV [FZD10, Q9ULW2]           False
 5  PSVGSKKTVL [REELD1, A0A1B0GV85]           False
 6        STKRKLASAV [NCF1, P14598]            True
 7      NTLNRKTTPV [CACNG8, Q8WXS5]            True
 8     SFISKKEWYV [NECTIN1, Q15223]            True
 9      TGLWKHETTV [ADGRA3, Q8IWK6]            True
10       KKMLQRRTLL [OR8G1, Q15617]            True
11      NIAESLESLV [PTPRZ1, P23471]           False
12     GIKKITSTAL [RPS6KA3, P51812]            True
13     VKRNSKETVV [MARCHF3, Q86UD3]            True
